- tgt: human Bcl-xL recombinant His-tagged protein (Homo sapiens)
- Construct: without the C-terminus hydrophobic tail; His
- Sequence (Q07817 1-209 limits assumed): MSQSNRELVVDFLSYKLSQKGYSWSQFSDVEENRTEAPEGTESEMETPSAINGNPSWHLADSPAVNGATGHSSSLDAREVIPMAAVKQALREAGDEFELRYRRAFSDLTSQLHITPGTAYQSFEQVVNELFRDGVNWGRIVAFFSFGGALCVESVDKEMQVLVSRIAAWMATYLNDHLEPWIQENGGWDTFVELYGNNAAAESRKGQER
- assay-protocol: Bcl-xL fluorescence polarization-based competitive binding assay (Flu-Bak peptide)
- condition-context: FP assay, 60 nM Bcl-xL, 5 nM Flu-Bak peptide; Ki calculated from IC50; read-out: Binding Affinity Ki (μM) Bc1-xL
measure: Ki (µM)

molecule	observed-result
Cc1oc2c(CC(C)C)c(O)c(O)c(O)c2c(=O)c1-c1ccc2c(C(C)C)c(O)ccc2c1 [Compound 2]	1.49
Cc1oc2c(CC(C)C)c(O)c(O)c(O)c2c(=O)c1-c1ccc2cc(O)ccc2c1 [Compound 15b]	1.71
Cc1oc2c(CC(C)C)c(O)c(O)c(O)c2c(=O)c1-c1ccc2ccccc2c1 [Compound 15c]	2.32
Cc1oc2c(CC(C)C)c(O)c(O)c(O)c2c(=O)c1-c1ccc2c(C)c(O)ccc2c1 [Compound 15a]	1.78
Cc1oc2c(CC(C)C)c(O)c(O)c(O)c2c(=O)c1-c1ccccc1 [Compound 15f]	4.27
